target: Cellular tumor antigen p53 (Homo sapiens); test: TOX21_p53_BLA_p4_ratio: Tox21 HCT-116 p53 Agonism Beta-lactamase Assay, Ratio, Phase 4 (AID 2283601)
Inconclusive results are not listed. The source made the active and inactive calls. Rule for the calls: active = hit-call score of the fitted dose curve at least 0.9, where 1 is the maximum; inconclusive = response in the unintended direction; inactive = score below 0.9.

>  <compound>
O=c1c2ccccc2nnn1CCl

>  <AC50>
inactive

$$$$
>  <compound>
CC1=NC(C)OC1C (stereo not given)

>  <AC50>
inactive

$$$$
>  <compound>
CCN(CC#N)c1cccc(C)c1

>  <AC50>
inactive

$$$$
>  <compound>
OC1OCCOC1O (stereo not given)

>  <AC50>
inactive

$$$$
>  <compound>
CCOC(=O)Cc1cccc2ccccc12

>  <AC50>
inactive

$$$$
>  <compound>
O=C(O)c1cc2ccccc2nc1C(=O)O

>  <AC50>
inactive

$$$$
>  <compound>
CCOC(=O)CC

>  <AC50>
inactive

$$$$
>  <compound>
CCCCCCCCCCCCCCCC[N+](C)(C)CC

>  <AC50>
70.4 µM (active)

$$$$
>  <compound>
CCC(C)OC(=O)c1ccc(O)cc1 (stereo not given)

>  <AC50>
inactive

$$$$
>  <compound>
COc1ccc(C(Cl)=C(c2ccc(OC)cc2)c2ccc(OC)cc2)cc1

>  <AC50>
inactive

$$$$
>  <compound>
C[C@]12CCC(=O)C=C1CC[C@@H]1[C@@H]2C(=O)C[C@@]2(C)[C@H]1CC[C@]2(O)C(=O)CO

>  <AC50>
inactive

$$$$
>  <compound>
CCCCC(CC)COC(=O)c1ccccc1O (stereo not given)

>  <AC50>
inactive

$$$$
>  <compound>
O=C(/C=C/C=C/c1ccc2c(c1)OCO2)N1CCCCC1

>  <AC50>
inactive

$$$$
>  <compound>
CNC(=S)N(C)C

>  <AC50>
inactive

$$$$
>  <compound>
C=C[Si](OC(C)=O)(OC(C)=O)OC(C)=O

>  <AC50>
inactive

$$$$
>  <compound>
FC(F)(F)C(=NOCC1OCCO1)c1ccc(Cl)cc1

>  <AC50>
inactive

$$$$
>  <compound>
NCCCN1CCN(CCCN)CC1

>  <AC50>
inactive

$$$$
>  <compound>
Nc1ccc(Cl)cc1Cl

>  <AC50>
inactive

$$$$
>  <compound>
CC/C=C\CCOC(=O)CCCCC

>  <AC50>
inactive

$$$$
>  <compound>
C=C[C@](C)(O)CC[C@@H]1[C@@]2(C)CCCC(C)(C)[C@@H]2CC[C@@]1(C)O

>  <AC50>
inactive

$$$$
>  <compound>
CC=C1CC2C=CC1C2 (stereo not given)

>  <AC50>
inactive

$$$$
>  <compound>
CC(=O)[C@@]1(O)CC[C@H]2[C@@H]3C[C@H](C)C4=CC(=O)C=C[C@]4(C)[C@@]3(F)[C@@H](O)C[C@@]21C

>  <AC50>
inactive

$$$$
>  <compound>
NNC(=O)c1cccc(C(=O)NN)c1

>  <AC50>
inactive

$$$$
>  <compound>
NC(=O)c1ccccc1O

>  <AC50>
inactive

$$$$
>  <compound>
CCC(C)(C)C1CCCCC1OC(C)=O (stereo not given)

>  <AC50>
inactive

$$$$
>  <compound>
C=CC(=O)OCCOC(=O)C=C

>  <AC50>
inactive

$$$$
>  <compound>
[Cl][In]([Cl])[Cl]

>  <AC50>
inactive

$$$$
>  <compound>
CC(=O)Oc1ccc(C)cc1

>  <AC50>
inactive

$$$$
>  <compound>
CCC(Cc1ccccc1)(C(=O)c1ccc(N2CCOCC2)cc1)N(C)C (stereo not given)

>  <AC50>
inactive

$$$$
>  <compound>
CCC(C)C=O (stereo not given)

>  <AC50>
inactive

$$$$
>  <compound>
C=C(C)c1cccc(C(C)(C)N=C=O)c1

>  <AC50>
inactive

$$$$
>  <compound>
CCCCCCCCCCOC(C)=O

>  <AC50>
inactive

$$$$
>  <compound>
Cc1cc(C)c(C)cc1C

>  <AC50>
inactive

$$$$
>  <compound>
C=C1C2CCC(C2)C1(C)C (stereo not given)

>  <AC50>
inactive

$$$$
>  <compound>
O=c1[nH]c(=O)c2[nH]c(=O)[nH]c2[nH]1

>  <AC50>
inactive

$$$$
>  <compound>
O=c1cc[nH]c(=S)[nH]1

>  <AC50>
inactive

$$$$
>  <compound>
COC(=O)/C=C\C(=O)O

>  <AC50>
inactive

$$$$
>  <compound>
CCCCCCC1(C)CCC(=O)O1 (stereo not given)

>  <AC50>
inactive

$$$$
>  <compound>
CC(=O)OCC(C)OC(C)=O (stereo not given)

>  <AC50>
inactive

$$$$
>  <compound>
CC(=O)NS(=O)(=O)c1ccc(N)cc1

>  <AC50>
inactive

$$$$
>  <compound>
O=C1CCCCCCCCCCC(=O)OCCO1

>  <AC50>
inactive

$$$$
>  <compound>
C=C(C)C(=O)OCC(C)C

>  <AC50>
inactive

$$$$
>  <compound>
CCCCCCOc1cc(C)c(O)c(C)c1C

>  <AC50>
82.5 µM (active)

$$$$
>  <compound>
CCC(CO)CO

>  <AC50>
inactive

$$$$
>  <compound>
Cc1ccc(C(C)c2ccc(C)c(C)c2)cc1C

>  <AC50>
inactive

$$$$
>  <compound>
O=C1OC(=O)c2cc(Oc3ccc4c(c3)C(=O)OC4=O)ccc21

>  <AC50>
inactive

$$$$
>  <compound>
CC1(C)S[C@@H]2[C@H](NC(=O)COc3ccccc3)C(=O)N2[C@H]1C(=O)O

>  <AC50>
inactive

$$$$
>  <compound>
Cc1cc(C)c(C)c(O)c1

>  <AC50>
inactive

$$$$
>  <compound>
CC(=O)[C@H]1[C@H](C#N)C[C@H]2[C@@H]3CC=C4C[C@@H](O)CC[C@]4(C)[C@H]3CC[C@@]21C

>  <AC50>
inactive

$$$$
>  <compound>
CCCOC(=O)CCCCC(=O)OCCC

>  <AC50>
inactive

$$$$

###

read-out: E-selectin (Homo sapiens); assay: BSK_LPS_Eselectin: BioMAP Diversity Plus: LPS Assay for Eselectin Biomarker Activity (AID 2283077); conditions: primary human HUVEC with PBMC; actives raise or lower the signal
The source made the active and inactive calls. The calls were made as follows: active = hit-call score of the fitted dose curve at least 0.9, where 1 is the maximum; inactive = score below 0.9.
Outcome codes: 1 = active, 0 = inactive

>  <compound>
CCCCC/C=C\C/C=C\CCCCCCCC(=O)OC

>  <discrete-label>
1

$$$$
>  <compound>
C#CC1(O)CC[C@H]2[C@@H]3CCC4=CCCC[C@@H]4[C@H]3CC[C@@]21C (stereo partly drawn)

>  <discrete-label>
1

$$$$
>  <compound>
C=CCOCC(O)CCl (stereo not drawn)

>  <discrete-label>
0

$$$$
>  <compound>
S=C(NC1CCCCC1)NC1CCCCC1

>  <discrete-label>
0

$$$$
>  <compound>
O=C(Cl)c1cc(C(=O)Cl)cc(C(=O)Cl)c1

>  <discrete-label>
1

$$$$
>  <compound>
c1ccc2c(c1)ccc1cc3c(ccc4ccccc43)cc12

>  <discrete-label>
0

$$$$
>  <compound>
COCc1c(C(C)C)nc(C(C)C)c(/C=C/[C@@H](O)C[C@@H](O)CC(=O)O)c1-c1ccc(F)cc1

>  <discrete-label>
0

$$$$
>  <compound>
O=c1c2ccccc2oc2ccccc12

>  <discrete-label>
0

$$$$

###

target: Transcriptional activator Myb (Homo sapiens) (UniProt P10242); assay: ATG_Myb_CIS: Attagene CIS-FACTORIAL HepG2 Assay for human Myeloblastosis (Myb) Proto-Oncogene Transcription Factor (AID 2282986); details: HepG2 Attagene CIS-FACTORIAL Myb reporter transcription; actives raise or lower the signal
Sequence (P10242 whole entry, looked up): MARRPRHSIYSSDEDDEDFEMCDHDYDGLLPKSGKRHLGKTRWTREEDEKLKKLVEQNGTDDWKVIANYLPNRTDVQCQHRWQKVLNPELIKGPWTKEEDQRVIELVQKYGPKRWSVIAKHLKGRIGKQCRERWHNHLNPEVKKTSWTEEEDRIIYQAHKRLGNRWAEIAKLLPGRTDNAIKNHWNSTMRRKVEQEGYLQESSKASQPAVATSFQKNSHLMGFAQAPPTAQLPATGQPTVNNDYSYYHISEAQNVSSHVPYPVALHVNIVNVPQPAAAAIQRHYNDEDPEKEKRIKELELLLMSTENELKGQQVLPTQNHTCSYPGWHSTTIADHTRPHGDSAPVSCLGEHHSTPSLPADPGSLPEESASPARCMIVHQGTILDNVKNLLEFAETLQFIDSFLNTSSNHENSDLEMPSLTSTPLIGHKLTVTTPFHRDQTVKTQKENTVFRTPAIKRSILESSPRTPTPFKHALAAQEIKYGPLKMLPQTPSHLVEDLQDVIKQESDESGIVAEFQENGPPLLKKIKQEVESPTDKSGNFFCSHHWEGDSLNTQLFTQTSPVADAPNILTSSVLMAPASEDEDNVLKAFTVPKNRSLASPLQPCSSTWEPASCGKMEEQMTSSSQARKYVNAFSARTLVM
Calls of active or inactive are those of the source. How the source made its calls: active means hit-call score of the fitted dose curve at least 0.9, where 1 is the maximum; inactive means score below 0.9.
Labels: t for active, f for inactive

>  <chem-smiles>
O=S(=O)(O)c1ccccc1C=Cc1ccc(-c2ccc(C=Cc3ccccc3S(=O)(=O)O)cc2)cc1

>  <discrete-label>
f

$$$$
>  <chem-smiles>
O=S(=O)(Oc1ccc(Cl)cc1Cl)c1ccccc1

>  <discrete-label>
f

$$$$
>  <chem-smiles>
Cn1c([N+](=O)[O-])cnc1COC(N)=O

>  <discrete-label>
f

$$$$
>  <chem-smiles>
NC(=O)OCC(COC(N)=O)c1ccccc1

>  <discrete-label>
f

$$$$
>  <chem-smiles>
Nc1ccc2cc3ccccc3cc2c1

>  <discrete-label>
f

$$$$
>  <chem-smiles>
Cc1ccc([N+](=O)[O-])cc1S(=O)(=O)O

>  <discrete-label>
t

$$$$
>  <chem-smiles>
O=P(O)(O)Oc1ccccc1

>  <discrete-label>
f

$$$$
>  <chem-smiles>
O=C1CCC(=O)N1Cl

>  <discrete-label>
f

$$$$

###

assay: ATG_NRF2_ARE_CIS: Attagene CIS-FACTORIAL HepG2 Assay for human Nuclear Factor Erythroid 2 Related Factor 2 (NFR2) response to Antioxidant Response Elements (ARE) (AID 2282992); conditions: HepG2 Attagene ARE/NRF2 reporter, transcription factor activity; actives raise or lower the signal;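 for AC50: reporter mRNA level measured by RT-PCR and capillary electrophoresis fluorescence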
Activity calls are given as the source filed them. Rule for the calls: active = hit-call score of the fitted dose curve at least 0.9, where 1 is the maximum; inactive = score below 0.9.
readout-name: AC50

>  <compound>
FC(F)=C(F)OC(F)(F)C(F)(F)C(F)(F)F

>  <readout-name>
AC50

>  <data-value>
inactive

$$$$
>  <compound>
CCCCCCCC[N+](C)(CCCCCCCC)CCCCCCCC

>  <readout-name>
AC50

>  <data-value>
1.59 µM (active)

$$$$
>  <compound>
CCC(C)OC(=O)c1ccc(O)cc1 (configuration not stated)

>  <readout-name>
AC50

>  <data-value>
100 µM (active)

$$$$
>  <compound>
C=C(C)C(=O)OCCOc1ccccc1

>  <readout-name>
AC50

>  <data-value>
67.1 µM (active)

$$$$
>  <compound>
OCCNCc1ccccc1

>  <readout-name>
AC50

>  <data-value>
inactive

$$$$
>  <compound>
CC(=O)CC(N)=O

>  <readout-name>
AC50

>  <data-value>
inactive

$$$$
>  <compound>
CCCCCCCCO[C@@H]1O[C@H](CO)[C@@H](O)[C@H](O)[C@H]1O

>  <readout-name>
AC50

>  <data-value>
inactive

$$$$
>  <compound>
O=CN1CCCCC1

>  <readout-name>
AC50

>  <data-value>
inactive

$$$$
>  <compound>
NC(CO)(CO)CO

>  <readout-name>
AC50

>  <data-value>
inactive

$$$$
>  <compound>
Cc1ccc([N+](=O)[O-])cc1S(=O)(=O)O

>  <readout-name>
AC50

>  <data-value>
inactive

$$$$
>  <compound>
C=C1[C@H]2CC[C@@H]3[C@H]2C(C)(C)CCC[C@]13C

>  <readout-name>
AC50

>  <data-value>
inactive

$$$$
>  <compound>
CC(C)(C)c1n[nH]c(=O)n(N)c1=O

>  <readout-name>
AC50

>  <data-value>
inactive

$$$$
>  <compound>
COC(=O)c1ccc2cc(C(=O)OC)ccc2c1

>  <readout-name>
AC50

>  <data-value>
inactive

$$$$
>  <compound>
CCCCCCCCCCOS(=O)(=O)O

>  <readout-name>
AC50

>  <data-value>
99.5 µM (active)

$$$$
>  <compound>
CCOC(=O)c1ccc(N(C)C)cc1

>  <readout-name>
AC50

>  <data-value>
inactive

$$$$
>  <compound>
C=CC(=O)OCCC(=O)O

>  <readout-name>
AC50

>  <data-value>
43.2 µM (active)

$$$$
>  <compound>
CCCCCCCCCCc1ccccc1

>  <readout-name>
AC50

>  <data-value>
inactive

$$$$
>  <compound>
O=C(Nc1cccc(C(F)(F)F)c1)c1cc(Br)cc(Br)c1O

>  <readout-name>
AC50

>  <data-value>
0.851 µM (active)

$$$$
>  <compound>
C=C[C@](C)(O)CC[C@@H]1[C@@]2(C)CCCC(C)(C)[C@@H]2CC[C@@]1(C)O

>  <readout-name>
AC50

>  <data-value>
6.58 µM (active)

$$$$
>  <compound>
COc1ccc(-c2coc3cc(O)ccc3c2=O)cc1

>  <readout-name>
AC50

>  <data-value>
inactive

$$$$
>  <compound>
CN(C)c1ccc(N=Nc2ccccc2C(=O)O)cc1

>  <readout-name>
AC50

>  <data-value>
4.76 µM (active)

$$$$
>  <compound>
Cc1cccc(OCCOc2cccc(C)c2)c1

>  <readout-name>
AC50

>  <data-value>
26.7 µM (active)

$$$$
>  <compound>
O=Cc1ccc(CO)o1

>  <readout-name>
AC50

>  <data-value>
inactive

$$$$
>  <compound>
COC(=O)/C=C/C(C)=C\C=C\C(C)=C\C=C\C=C(C)\C=C\C=C(C)\C=C\C(=O)O

>  <readout-name>
AC50

>  <data-value>
67.9 µM (active)

$$$$
>  <compound>
C1=Cc2ccccc2C1

>  <readout-name>
AC50

>  <data-value>
19.8 µM (active)

$$$$
>  <compound>
Cc1cc(=O)n(-c2ccccc2)n1C

>  <readout-name>
AC50

>  <data-value>
inactive

$$$$
>  <compound>
O=C1CCCCCCCCCCC(=O)OCCO1

>  <readout-name>
AC50

>  <data-value>
inactive

$$$$
>  <compound>
CC1=Nc2ccc3ccccc3c2C1(C)C

>  <readout-name>
AC50

>  <data-value>
100 µM (active)

$$$$
>  <compound>
CCCCCC(C)O (configuration not stated)

>  <readout-name>
AC50

>  <data-value>
inactive

$$$$
>  <compound>
COc1cc(C)ccc1C(C)C

>  <readout-name>
AC50

>  <data-value>
inactive

$$$$
>  <compound>
COC(=O)c1ccccc1OC

>  <readout-name>
AC50

>  <data-value>
inactive

$$$$
>  <compound>
Cc1ccc2c(c1)C(=O)c1ccccc1C2=O

>  <readout-name>
AC50

>  <data-value>
10.5 µM (active)

$$$$
>  <compound>
NC(=O)C1CO1 (configuration not stated)

>  <readout-name>
AC50

>  <data-value>
inactive

$$$$
>  <compound>
CCC(Cc1ccccc1)(C(=O)c1ccc(N2CCOCC2)cc1)N(C)C (configuration not stated)

>  <readout-name>
AC50

>  <data-value>
37.2 µM (active)

$$$$
>  <compound>
COC(=O)c1c(C)cc(O)c(C)c1O

>  <readout-name>
AC50

>  <data-value>
inactive

$$$$
>  <compound>
CC1(C)O[C@@H]2C[C@H]3[C@@H]4C[C@H](F)C5=CC(=O)CC[C@]5(C)[C@H]4[C@@H](O)C[C@]3(C)[C@]2(C(=O)CO)O1

>  <readout-name>
AC50

>  <data-value>
inactive

$$$$
>  <compound>
CCOC(=O)c1ccccc1C(=C1C=C(Br)C(=O)C(Br)=C1)c1cc(Br)c(O)c(Br)c1

>  <readout-name>
AC50

>  <data-value>
inactive

$$$$
